tested_system: Mushroom tyrosinase (Agaricus bisporus, UniProt O42713+Q00024+C7FF04+C7FF05)
measured_property: IC50 (µM)
Express it in µM; write the number only.

Oc1cc(O)c2c(c1)O[C@H](c1cc(O)c(O)c(O)c1)[C@H](O)C2 [EPIGALLOCATECHIN]	700
Cc1c(C)c2c(c(C)c1O)CCC(C)(C(=O)O)O2 (configuration not stated) [TROLOX]	700
C[C@@H]1O[C@@H](Oc2c(-c3cc(O)c(O)c(O)c3)oc3cc(O)cc(O)c3c2=O)[C@H](O)[C@H](O)[C@H]1O	2000

Continue with the next molecule.
In: Fill in: IC50 of COc1cc(O)c2c(=O)c(O[C@@H]3O[C@@H](C)[C@H](O)[C@@H](O)[C@H]3O)c(-c3ccc(O)c(O)c3)oc2c1O is ___
Out: 2200
